Each entry below lists one item and its recorded Emax value.
SUBJECT_OF_TEST: human S1P5 receptor (S1PR5) (Homo sapiens)
Construct: host or cells: CHO-K1
ASSAY_SUMMARY: Intracellular Ca2+ release (method 1), agonist potency and efficacy, S1P5
Type: cell-based
CONDITION_NOTES: maximum effect in % of reference agonist phospho-fingolimod (100%); read-out: hS1P5 EMax
Procedure: Agonistic activity and efficacy of compounds was assessed in recombinant cells using method 1 described below. Agonist potency and efficacy were assessed by measurement of intracellular Ca^2+ release. […]

O=C(O)CCCN1Cc2ccc(OCc3ccccc3OC(F)(F)F)cc2C2(CC2)C1 ... 50 to 100%
O=C(O)CCCN1Cc2ccc(C#Cc3ccc(=O)n(CC4CC4)c3)cc2C2(CC2)C1 ... 50 to 100%
CC(C)Oc1ccc(C#Cc2ccc3c(c2)C2(CC2)CN(CC2(C(=O)O)CC2)C3)cc1 ... 50 to 100%

Then this compound:
// query Specify reported Emax for the compound shown: "O=C(O)CN1Cc2ccc(OCc3c(Cl)cccc3Cl)cc2C2(CC2)C1"
// result 50 to 100%

----------
Each entry below lists one item and its recorded EC50 value.
SUBJECT_OF_TEST: human S1P5 receptor (S1PR5) (Homo sapiens)
Construct: host or cells: CHO-K1
ASSAY_SUMMARY: Intracellular Ca2+ release (method 1), agonist potency and efficacy, S1P5
Type: cell-based
CONDITION_NOTES: recombinant CHO-K1 cells expressing human S1PR5, aequorin, Gq/i5; Ca2+ release; read-out: S1P5 EC50 range

CCOc1ncc(C#Cc2ccc3c(c2)C2(CC2)CN(CCCC(=O)O)C3)cc1F ... 100 to 1000 nM
CCOc1cc(C)c(C#Cc2ccc3c(c2)C2(CC2)CN(CCCC(=O)O)C3)cn1 ... 10 to 100 nM

// query Provide EC50, tested on human S1P5 receptor (S1PR5) (Homo sapiens), for "O=C(O)CN1Cc2ccc(OCc3c(Cl)cccc3Cl)cc2C2(CC2)C1" .
// result 100 to 1000 nM

// query Provide EC50, tested on human S1P5 receptor (S1PR5) (Homo sapiens), for "O=C(O)CCN1Cc2ccc(C#Cc3c(Cl)cccc3Cl)cc2C2(CC2)C1" .
// result < 10 nM

// query Provide EC50, tested on human S1P5 receptor (S1PR5) (Homo sapiens), for CC(CC(=O)O)CN1Cc2ccc(C#Cc3ccc(C(C)C)cc3)cc2C2(CC2)C1 (centres unmarked) .
// result < 10 nM

// query Provide EC50, tested on human S1P5 receptor (S1PR5) (Homo sapiens), for CC(CC(=O)O)CN1Cc2ccc(C#Cc3ccc(OC(C)C)cc3)cc2C2(CC2)C1 (centres unmarked) .
// result < 10 nM

// query Provide EC50, tested on human S1P5 receptor (S1PR5) (Homo sapiens), for CCOc1ccc(C#Cc2ccc3c(c2)C2(CC2)CN(CC(C)CC(=O)O)C3)cc1 (centres unmarked) .
// result 10 to 100 nM

// query Provide EC50, tested on human S1P5 receptor (S1PR5) (Homo sapiens), for "Cc1ccccc1C#Cc1ccc2c(c1)C1(CC1)CN(CCC(=O)O)C2" .
// result 10 to 100 nM

----------
Each entry below lists one item and its recorded pEC50 value.
SUBJECT_OF_TEST: human S1P1 receptor (S1PR1) (Homo sapiens, UniProt P21453)
Construct: host or cells: CHO-K1
Sequence (P21453 whole entry): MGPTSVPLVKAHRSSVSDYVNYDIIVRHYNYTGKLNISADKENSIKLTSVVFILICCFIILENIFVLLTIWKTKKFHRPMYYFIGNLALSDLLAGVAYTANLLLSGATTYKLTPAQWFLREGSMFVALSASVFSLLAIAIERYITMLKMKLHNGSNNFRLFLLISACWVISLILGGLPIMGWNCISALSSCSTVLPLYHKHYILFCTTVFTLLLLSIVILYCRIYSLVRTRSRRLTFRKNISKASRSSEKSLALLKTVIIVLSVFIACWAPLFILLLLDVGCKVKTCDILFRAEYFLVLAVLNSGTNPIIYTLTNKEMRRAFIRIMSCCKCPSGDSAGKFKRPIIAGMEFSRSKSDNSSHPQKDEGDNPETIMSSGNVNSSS
ASSAY_SUMMARY: Intracellular Ca2+ release (method 1), agonist potency, S1P1
Type: cell-based
CONDITION_NOTES: CHO-K1 cells expressing human S1PR1; cells given as bound
pEC50: −log10 of the molar value.

CCOc1ncc(C#Cc2ccc3c(c2)C2(CC2)CN(CCCC(=O)O)C3)cc1F ... < 6.00
O=C(O)CCCN1Cc2ccc(OCc3cccc(F)c3F)cc2C2(CC2)C1 ... < 6.00
CCOc1ccc(C#Cc2ccc3c(c2)C2(CC2)CN(CCCC(=O)O)C3)cc1F ... < 6.00
O=C(O)CCN1Cc2ccc(C#Cc3cccc(F)c3F)cc2C2(CC2)C1 ... < 6.00
O=C(O)CCN1Cc2ccc(C#Cc3cccc(Cl)c3)cc2C2(CC2)C1 ... < 6.00
CCOc1ccc(C#Cc2ccc3c(c2)C2(CC2)CN(CC(C)CC(=O)O)C3)cc1F (centres unmarked) ... < 6.00
O=C(O)CCCN1Cc2ccc(OCc3cccc(Cl)c3)cc2C2(CC2)C1 ... < 6.00

Then this compound:
// query Provide pEC50, tested on human S1P1 receptor (S1PR1) (Homo sapiens, UniProt P21453), for CCOc1ccc(C#Cc2ccc3c(c2)C2(CC2)CN(CC(=O)O)C3)cc1 [Compound 5, 2,2,2-trifluoroacetate] .
// result < 6.00

----------
Each entry below lists one item and its recorded pEC50 value.
SUBJECT_OF_TEST: human S1P3 receptor (S1PR3) (Homo sapiens, UniProt Q99500)
Construct: host or cells: CHO-K1
Sequence (Q99500 whole entry): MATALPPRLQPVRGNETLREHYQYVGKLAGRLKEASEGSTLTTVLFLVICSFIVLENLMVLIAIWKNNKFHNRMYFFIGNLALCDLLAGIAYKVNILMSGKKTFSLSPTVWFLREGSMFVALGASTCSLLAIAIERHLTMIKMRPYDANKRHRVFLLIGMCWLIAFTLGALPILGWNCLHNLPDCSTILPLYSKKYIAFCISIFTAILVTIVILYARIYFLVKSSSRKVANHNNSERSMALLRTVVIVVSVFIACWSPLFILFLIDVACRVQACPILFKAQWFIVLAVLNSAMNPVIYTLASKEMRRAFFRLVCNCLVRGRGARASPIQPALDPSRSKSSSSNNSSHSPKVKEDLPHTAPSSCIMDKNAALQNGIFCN
ASSAY_SUMMARY: Intracellular Ca2+ release (method 1), agonist potency, S1P3
Assay type: cell-based
CONDITION_NOTES: CHO-K1 cells expressing human S1PR3
Experimental: Agonistic activity and efficacy of compounds was assessed in recombinant cells using method 1 described below. Agonist potency and efficacy were assessed by measurement of intracellular Ca^2+ release. […]
pEC50: −log10 of the molar value.

Previously resolved entries follow.
O=C(O)CCCN1Cc2ccc(C#Cc3ccc(OC(F)(F)F)c(F)c3)cc2C2(CC2)C1 [Compound 47] ... < 6.00
O=C(O)CCN1Cc2ccc(C#Cc3cccc(Cl)c3)cc2C2(CC2)C1 [Compound 33] ... < 6.00
O=C(O)CCCN1Cc2ccc(OCc3ccccc3OC(F)(F)F)cc2C2(CC2)C1 [Compound 14] ... < 6.00
O=C(O)CCCN1Cc2ccc(OCc3cccc(Cl)c3)cc2C2(CC2)C1 [Compound 24] ... < 6.00

Then this compound:
// query Specify reported pEC50 for the compound shown: O=C(O)CCN1Cc2ccc(C#Cc3cccc(Cl)n3)cc2C2(CC2)C1 [Compound 40]
// result < 6.00

----------
SUBJECT_OF_TEST: human S1P4 receptor (S1PR4) (Homo sapiens)
Construct: host or cells: CHO-K1
Sequence (O95977 1-384): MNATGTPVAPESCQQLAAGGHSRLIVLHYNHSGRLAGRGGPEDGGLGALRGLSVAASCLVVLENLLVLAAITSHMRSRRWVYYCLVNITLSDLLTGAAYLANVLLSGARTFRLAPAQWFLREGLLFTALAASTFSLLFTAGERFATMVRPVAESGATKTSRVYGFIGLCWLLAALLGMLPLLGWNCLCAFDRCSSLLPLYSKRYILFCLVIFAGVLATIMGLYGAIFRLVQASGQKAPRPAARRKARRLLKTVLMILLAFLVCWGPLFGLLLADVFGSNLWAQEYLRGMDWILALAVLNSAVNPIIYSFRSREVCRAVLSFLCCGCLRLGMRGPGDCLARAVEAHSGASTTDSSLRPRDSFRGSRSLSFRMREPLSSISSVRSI
ASSAY_SUMMARY: Intracellular Ca2+ release (method 1), agonist potency, S1P4
Assay type: cell-based
CONDITION_NOTES: CHO-K1 cells expressing human S1PR4
pEC50: −log10 of the molar value.
Each entry below lists one item and its recorded pEC50 value.

Previously resolved entries follow.
O=C(O)CN1Cc2ccc(OCc3c(Cl)cccc3Cl)cc2C2(CC2)C1 ... 6.00 to 7.00
O=C(O)CCN1Cc2ccc(C#Cc3cc(F)cc(F)c3)cc2C2(CC2)C1 ... 6.00 to 7.00
O=C(O)CCN1Cc2ccc(C#Cc3cccc(Cl)c3)cc2C2(CC2)C1 ... > 8.00
O=C(O)CCCN1Cc2ccc(OCc3cccc(Cl)c3)cc2C2(CC2)C1 ... 6.00 to 7.00
O=C(O)CCN1Cc2ccc(C#Cc3c(F)cccc3F)cc2C2(CC2)C1 ... 6.00 to 7.00

Then this molecule:
// query Specify reported pEC50 for the molecule shown: "O=C(O)CCCN1Cc2ccc(OCc3ccccc3OC(F)(F)F)cc2C2(CC2)C1"
// result 6.00 to 7.00

----------
SUBJECT_OF_TEST: human S1P3 receptor (S1PR3) (Homo sapiens, UniProt Q99500)
Construct: host or cells: CHO-K1
ASSAY_SUMMARY: Intracellular Ca2+ release (method 1), agonist potency, S1P3
Type: cell-based
CONDITION_NOTES: value for reference compounds
Each entry below lists one item and its recorded EC50 value.

O=C(O)CCN1CCc2cc(C#Cc3c(Cl)cccc3Cl)ccc2C1 [Reference compound 2, reference compound] ... > 1 µM

Then this compound:
// query Provide EC50, tested on human S1P3 receptor (S1PR3) (Homo sapiens, UniProt Q99500), for O=C(O)CCN1CCc2cc(C#Cc3cccc(F)c3F)ccc2C1 [Reference compound 1, reference compound] .
// result > 1 µM

----------
SUBJECT_OF_TEST: human S1P5 receptor (S1PR5) (Homo sapiens, UniProt Q9H228)
Construct: host or cells: CHO-K1
Sequence (Q9H228 whole entry): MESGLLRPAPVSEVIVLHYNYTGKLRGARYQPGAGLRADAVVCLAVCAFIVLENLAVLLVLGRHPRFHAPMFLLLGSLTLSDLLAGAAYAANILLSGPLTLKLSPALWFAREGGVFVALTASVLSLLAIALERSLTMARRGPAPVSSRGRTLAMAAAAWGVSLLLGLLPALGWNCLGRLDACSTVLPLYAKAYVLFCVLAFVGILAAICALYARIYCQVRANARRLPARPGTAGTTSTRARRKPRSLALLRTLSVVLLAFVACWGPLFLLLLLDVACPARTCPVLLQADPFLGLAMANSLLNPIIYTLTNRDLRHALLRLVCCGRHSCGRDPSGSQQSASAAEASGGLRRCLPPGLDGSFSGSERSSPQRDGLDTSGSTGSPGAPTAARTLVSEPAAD
ASSAY_SUMMARY: Intracellular Ca2+ release (method 1), agonist potency and efficacy, S1P5
Format: cell-based
CONDITION_NOTES: recombinant CHO-K1 cells expressing human S1PR5, aequorin, Gq/i5; Ca2+ release; read-out: S1P5 EC50 range
Each entry below lists one item and its recorded EC50 value.

Previously resolved entries follow.
O=C(O)CCN1Cc2ccc(C#Cc3ccccc3)cc2C2(CC2)C1 ... 100 to 1000 nM
O=C(O)CCN1Cc2ccc(C#Cc3cccc(Cl)c3)cc2C2(CC2)C1 ... < 10 nM
CC(CC(=O)O)CN1Cc2ccc(C#Cc3ccc(OC(F)(F)F)cc3)cc2C2(CC2)C1 (stereo not shown) ... 100 to 1000 nM
CC(CC(=O)O)CN1Cc2ccc(C#Cc3c(F)cccc3F)cc2C2(CC2)C1 (stereo not shown) ... < 10 nM

// query Specify reported EC50 for the compound shown: "COc1ncc(C#Cc2ccc3c(c2)C2(CC2)CN(CCCC(=O)O)C3)cc1F"
// result 1000 to 10000 nM

// query Specify reported EC50 for the compound shown: "CC(C)Oc1ccc(C#Cc2ccc3c(c2)C2(CC2)CN(CC2(C(=O)O)CC2)C3)cc1"
// result 100 to 1000 nM

// query Specify reported EC50 for the compound shown: CCOc1ccc(C#Cc2ccc3c(c2)C2(CC2)CN(C2CC(C(=O)O)C2)C3)nc1 (stereo not shown)
// result 1000 to 10000 nM

// query Specify reported EC50 for the compound shown: "CCc1cccc(Cl)c1COc1ccc2c(c1)C1(CC1)CN(CC(=O)O)C2"
// result < 10 nM

// query Specify reported EC50 for the compound shown: CCOc1ccc(C#Cc2ccc3c(c2)C2(CC2)CN(C2CC(C(=O)O)C2)C3)cc1F (stereo not shown)
// result 10 to 100 nM

// query Specify reported EC50 for the compound shown: CC(CC(=O)O)CN1Cc2ccc(C#Cc3ccc(OC4CCCC4)cc3)cc2C2(CC2)C1 (stereo not shown)
// result 10 to 100 nM

// query Specify reported EC50 for the compound shown: "Cc1ccccc1COc1ccc2c(c1)C1(CC1)CN(CCCC(=O)O)C2"
// result < 10 nM

// query Specify reported EC50 for the compound shown: CC(CC(=O)O)CN1Cc2ccc(C#Cc3ccc(OC(F)(F)F)c(F)c3)cc2C2(CC2)C1 (stereo not shown)
// result < 10 nM

// query Specify reported EC50 for the compound shown: "CCOc1ccc(C#Cc2ccc3c(c2)C2(CC2)CN(CCCC(=O)O)C3)c(C)n1"
// result 100 to 1000 nM

// query Specify reported EC50 for the compound shown: "O=C(O)CCCN1Cc2ccc(OCc3cccc(OC(F)(F)F)c3)cc2C2(CC2)C1"
// result 10 to 100 nM

// query Specify reported EC50 for the compound shown: "COc1ccc(C#Cc2ccc3c(c2)C2(CC2)CN(CCCC(=O)O)C3)c(C)n1"
// result 1000 to 10000 nM

// query Specify reported EC50 for the compound shown: CCOc1cc(C)c(C#Cc2ccc3c(c2)C2(CC2)CN(CC(C)CC(=O)O)C3)cn1 (stereo not shown)
// result 10 to 100 nM

// query Specify reported EC50 for the compound shown: CCOc1ccc(C#Cc2ccc3c(c2)C2(CC2)CN(CC(=O)O)C3)cc1 [Compound 5, 2,2,2-trifluoroacetate]
// result 100 to 1000 nM
